experimental_target: human progesterone receptor A form (PR-A) (Homo sapiens, UniProt P06401)
Sequence (P06401 165-933): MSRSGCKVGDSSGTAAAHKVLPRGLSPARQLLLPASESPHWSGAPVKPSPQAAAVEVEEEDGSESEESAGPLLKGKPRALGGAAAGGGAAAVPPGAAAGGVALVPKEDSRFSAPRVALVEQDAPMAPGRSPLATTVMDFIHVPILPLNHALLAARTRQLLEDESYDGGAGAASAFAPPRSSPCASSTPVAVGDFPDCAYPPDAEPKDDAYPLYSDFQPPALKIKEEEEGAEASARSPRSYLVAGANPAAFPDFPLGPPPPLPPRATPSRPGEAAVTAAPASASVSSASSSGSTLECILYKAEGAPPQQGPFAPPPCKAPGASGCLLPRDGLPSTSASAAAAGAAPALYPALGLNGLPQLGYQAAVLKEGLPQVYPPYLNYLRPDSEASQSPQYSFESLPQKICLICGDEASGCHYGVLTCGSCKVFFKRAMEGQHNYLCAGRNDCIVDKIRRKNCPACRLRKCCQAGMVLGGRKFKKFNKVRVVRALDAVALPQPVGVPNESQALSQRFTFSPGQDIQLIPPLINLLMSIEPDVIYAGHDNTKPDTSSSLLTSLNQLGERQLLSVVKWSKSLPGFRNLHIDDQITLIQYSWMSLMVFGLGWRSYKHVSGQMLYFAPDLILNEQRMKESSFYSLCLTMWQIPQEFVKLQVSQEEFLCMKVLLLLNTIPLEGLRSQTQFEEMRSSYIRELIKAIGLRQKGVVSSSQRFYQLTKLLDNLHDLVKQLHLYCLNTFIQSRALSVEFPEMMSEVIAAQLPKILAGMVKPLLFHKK
protocol_summary: PR binding assay, baculovirus extract, [3H] progesterone
Below, each of the compounds is paired with its reported pKi value.
Just the number, please; pKi means minus log10 of the concentration in mol/L.

Examples from the recorded data:
In [3]: df
Out[3]:
                                     smiles  value_observed
0  CC1=CC(C)(C)Nc2ccc3c(c21)/C(=C/c1ccccc1F)Oc1ccccc1-3            8.52
1     CC1=CC(C)(C)Nc2ccc(-c3csc(C#N)c3)cc21            7.77
2   CC1=CC(C)(C)Nc2cc3c(cc21)-c1ccc(F)cc1C3            8.40
3  CC1=CC(C)(C)Nc2ccc3c(c21)/C(=C/c1ccccc1C)Oc1ccc(F)cc1-3            9.30
4  CC1=CC(C)(C)Nc2ccc3c(c21)/C(=C/c1ccccc1)Oc1ccccc1-3            9.00

Now take the following compound into account.
query: Given the compound CC1=CC(C)(C)Nc2ccc3c(c21)/C(=C/c1ccc(F)cc1)Oc1ccccc1-3 , what is its reported pKi?
result: 8.40

###

experimental_target: human androgen receptor (AR) (Homo sapiens)
Construct: expressed in transfected cells; host or cells: CV-1 cells, transient transfection
Sequence (P10275 whole entry): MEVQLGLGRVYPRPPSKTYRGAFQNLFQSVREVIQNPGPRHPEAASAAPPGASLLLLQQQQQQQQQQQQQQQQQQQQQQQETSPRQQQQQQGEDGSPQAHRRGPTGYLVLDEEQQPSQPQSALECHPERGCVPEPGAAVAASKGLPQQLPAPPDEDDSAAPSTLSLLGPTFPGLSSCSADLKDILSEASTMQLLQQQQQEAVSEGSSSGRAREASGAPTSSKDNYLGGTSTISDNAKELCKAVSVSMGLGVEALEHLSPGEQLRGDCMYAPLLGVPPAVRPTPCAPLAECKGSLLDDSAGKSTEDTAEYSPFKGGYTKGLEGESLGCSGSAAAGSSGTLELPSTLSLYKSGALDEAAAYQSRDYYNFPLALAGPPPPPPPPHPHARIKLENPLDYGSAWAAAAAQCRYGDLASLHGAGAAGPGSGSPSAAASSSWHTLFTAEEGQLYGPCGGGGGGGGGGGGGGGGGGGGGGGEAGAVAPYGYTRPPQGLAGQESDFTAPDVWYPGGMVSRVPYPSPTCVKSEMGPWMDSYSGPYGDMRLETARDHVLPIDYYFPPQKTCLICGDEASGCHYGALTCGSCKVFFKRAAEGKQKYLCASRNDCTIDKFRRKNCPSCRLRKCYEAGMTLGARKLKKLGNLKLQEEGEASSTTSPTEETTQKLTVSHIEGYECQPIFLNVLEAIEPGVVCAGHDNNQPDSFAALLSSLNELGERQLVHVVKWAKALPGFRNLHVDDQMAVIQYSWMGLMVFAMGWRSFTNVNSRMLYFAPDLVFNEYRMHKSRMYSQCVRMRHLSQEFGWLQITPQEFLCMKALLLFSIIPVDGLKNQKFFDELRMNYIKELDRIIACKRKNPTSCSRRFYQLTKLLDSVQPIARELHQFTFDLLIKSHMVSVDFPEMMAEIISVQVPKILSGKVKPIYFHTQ
protocol_summary: Co-transfection assay, AR agonist and antagonist activity, CV-1 cells (pRShAR)
Type: cell-based
details: read-out: AR Antagonist CV-1 Cells Potency; Table 2; antagonist mode; IC50
pIC50: −log10 of the molar value.
parameter: pIC50

In [3]: df
Out[3]:
                                   compound  value_observed
0  CC1=CC(C)(C)Nc2cc3oc(=O)cc(C(F)(F)F)c3cc21          < 5.00

Now take the following compound into account.
query: Given the compound CCC1CCNc2cc3oc(=O)cc(C(F)(F)F)c3cc21 (racemic) , what is its reported pIC50?
result: < 5.00

###

Below, each of the compounds is paired with its reported pIC50 value.
experimental_target: human glucocorticoid receptor (GR) (Homo sapiens)
Construct: expressed in transfected cells; host or cells: CV-1 cells, transient transfection
Sequence (P04150 1-777): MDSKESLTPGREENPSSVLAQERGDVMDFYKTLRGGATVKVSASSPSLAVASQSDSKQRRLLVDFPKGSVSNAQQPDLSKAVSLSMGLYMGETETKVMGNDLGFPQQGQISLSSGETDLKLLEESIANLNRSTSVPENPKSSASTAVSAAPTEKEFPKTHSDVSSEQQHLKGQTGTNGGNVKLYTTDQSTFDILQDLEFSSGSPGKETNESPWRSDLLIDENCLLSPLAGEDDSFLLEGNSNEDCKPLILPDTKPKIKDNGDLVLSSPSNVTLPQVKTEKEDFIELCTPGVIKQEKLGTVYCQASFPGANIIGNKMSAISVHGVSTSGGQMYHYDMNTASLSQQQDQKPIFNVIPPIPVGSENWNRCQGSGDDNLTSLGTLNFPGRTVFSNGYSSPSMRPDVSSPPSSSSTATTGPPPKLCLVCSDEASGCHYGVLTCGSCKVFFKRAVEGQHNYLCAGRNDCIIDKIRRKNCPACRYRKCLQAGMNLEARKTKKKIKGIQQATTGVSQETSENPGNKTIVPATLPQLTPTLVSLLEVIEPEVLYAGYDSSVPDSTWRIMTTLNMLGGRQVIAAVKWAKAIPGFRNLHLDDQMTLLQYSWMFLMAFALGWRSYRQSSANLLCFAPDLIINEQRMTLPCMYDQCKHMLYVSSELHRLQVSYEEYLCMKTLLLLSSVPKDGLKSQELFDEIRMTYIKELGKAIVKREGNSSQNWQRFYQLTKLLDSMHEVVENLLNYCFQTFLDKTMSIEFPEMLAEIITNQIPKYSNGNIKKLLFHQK
protocol_summary: Co-transfection assay, GR antagonist activity, CV-1 cells (pRShGR)
Assay type: cell-based
details: antagonist mode, dexamethasone at its EC50; IC50; read-out: GR Antagonist CV-1 Cells Potency
Just the number, please; pIC50 means minus log10 of the concentration in mol/L.

Examples from the recorded data:
In [3]: df
Out[3]:
                                   compound  value_observed
0  CC1=CC(C)(C)Nc2ccc3c(c21)C(c1ccsc1)Oc1ccccc1-3 (racemic)            5.81
1  CC1=CC(C)(C)Nc2ccc3c(c21)C(c1cccc(C(F)(F)F)c1)Oc1ccccc1-3 (racemic)            6.23
2  CC1=CC(C)(C)Nc2ccc3c(c21)C(c1ccc(C)cc1)Oc1ccccc1-3 (racemic)            6.07
3  CC1=CC(C)(C)Nc2ccc3c(c21)C(c1ccccc1)Oc1ccccc1-3 (racemic)            6.22

Now take the following compound into account.
query: Given the compound C=C1CC(C)(C)Nc2ccc3c(c21)C(c1cccc(F)c1)Oc1ccccc1-3 (racemic) , what is its reported pIC50?
result: 6.55
